# reported Kb; entries follow
system: rabbit aorta (thromboxane receptor sites); experiment: Rabbit aorta system: antagonism of contraction by 11,9-(epoxymethano) PGH2; format: cell-based; details: Oryctolagus cuniculus, 0.5 h; against 11,9-(epoxymethano) PGH2; compound added 30 minutes previously; Gaddum-Schild Equation; read-out: AFFINITY CONSTANTS, Rabbit Aorta (converted)
Answer with the value and then the unit.

molecule	recorded value
O=C(O)CCC/C=C\C[C@@H]1[C@@H](C=NOCc2ccc(Cl)cc2)[C@@H]2C=C[C@H]1C2 (relative stereo)	149 nM
CCCCCON=C[C@H]1[C@@H]2CC[C@@H](C2)[C@@H]1C/C=C\CCCC(=O)O (relative stereo) [(CH2)4 CH3]	6670 nM
O=C(O)CCC/C=C\C[C@@H]1[C@@H](C=NOCc2ccc(F)cc2)[C@@H]2C=C[C@H]1C2 (relative stereo) [drawing 29]	278 nM

GET /values?readout=Kb&item= O=C(O)CCC/C=C\C[C@@H]1[C@@H](C=NOC(c2ccccc2)c2ccccc2)[C@@H]2C=C[C@H]1C2 (relative stereo)
1690 nM

----------
Molecular target: human platelets (thromboxane receptor sites) (Homo sapiens, UniProt P21731)
Construct: Platelet-rich plasma is obtained from fresh, citrated human blood; endogenous in cells; host or cells: human platelets (platelet-rich plasma from fresh, citrated human blood)
Sequence (P21731 1-343): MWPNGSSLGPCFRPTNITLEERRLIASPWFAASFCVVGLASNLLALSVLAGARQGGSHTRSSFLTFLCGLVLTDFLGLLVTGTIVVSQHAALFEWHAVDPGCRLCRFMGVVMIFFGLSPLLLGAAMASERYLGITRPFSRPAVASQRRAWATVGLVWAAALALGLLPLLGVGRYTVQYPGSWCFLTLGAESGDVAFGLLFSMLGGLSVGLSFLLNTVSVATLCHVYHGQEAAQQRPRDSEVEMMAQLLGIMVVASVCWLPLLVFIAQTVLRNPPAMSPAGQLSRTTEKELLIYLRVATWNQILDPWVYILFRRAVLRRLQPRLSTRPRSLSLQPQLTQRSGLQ
Test: Human platelet system: antagonism of aggregation by 11,9-(epoxymethano) PGH2
Type: cell-based
Details: against 11,9-epoxymethano analogue of PGH2; compound added 5 minutes previously; Gaddum-Schild Equation; read-out: AFFINITY CONSTANTS (KB), Human Platelets (converted)
measured quantity: Kb (nM)
Answer format: numeric, nM implied, no suffix.

Under human platelets (thromboxane receptor sites) (Homo sapiens, UniProt P21731): Kb value of O=C(O)CCC/C=C\C[C@H]1[C@H]2CC[C@H](C2)[C@@H]1C=NOCc1ccc(Cl)cc1Cl (relative stereo) ?
3570

Under human platelets (thromboxane receptor sites) (Homo sapiens, UniProt P21731): Kb value of O=C(O)CCC/C=C\C[C@@H]1[C@@H](C=NOCc2ccc(F)cc2)[C@@H]2C=C[C@H]1C2 (relative stereo) [drawing 29] ?
2500

Under human platelets (thromboxane receptor sites) (Homo sapiens, UniProt P21731): Kb value of O=C(O)CCC/C=C\C[C@H]1[C@H]2CC[C@H](C2)[C@@H]1C=NOCc1cccc(Cl)c1 (relative stereo) ?
1690
